target: human DLL3 on DMS-153 cells (human) (UniProt Q9NYJ7); assay: cell-based or functional assay
Sequence (Q9NYJ7 27-618 limits assumed): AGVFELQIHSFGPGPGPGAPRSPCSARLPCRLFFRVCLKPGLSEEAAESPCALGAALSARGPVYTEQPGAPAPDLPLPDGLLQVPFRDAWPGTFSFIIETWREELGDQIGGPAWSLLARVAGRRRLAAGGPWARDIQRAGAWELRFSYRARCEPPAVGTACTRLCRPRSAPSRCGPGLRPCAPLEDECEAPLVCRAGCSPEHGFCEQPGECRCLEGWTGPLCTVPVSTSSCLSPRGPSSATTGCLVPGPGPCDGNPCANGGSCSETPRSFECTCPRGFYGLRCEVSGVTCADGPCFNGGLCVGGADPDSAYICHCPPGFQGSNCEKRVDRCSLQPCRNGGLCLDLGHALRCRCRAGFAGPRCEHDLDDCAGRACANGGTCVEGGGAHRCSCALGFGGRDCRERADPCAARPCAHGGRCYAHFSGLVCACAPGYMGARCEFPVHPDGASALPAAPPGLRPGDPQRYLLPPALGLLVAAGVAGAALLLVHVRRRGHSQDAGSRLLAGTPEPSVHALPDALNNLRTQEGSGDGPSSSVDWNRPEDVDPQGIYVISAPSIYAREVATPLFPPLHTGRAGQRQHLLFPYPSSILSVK
Quantity: DMS-153 TDCC EC50 (conditioned medium, human T cells) (nM)
Lab book: enter the figure in nM, no units written.

binder="anti-DLL3 trispecific protein, DLL3 binder 4B07 (protein, part only; not given: anti-CD3 fragment and anti-albumin sdAb, part only) chain, part: EVQLVESGGGLVQPGGSLTLSCAASGSSVGFLSMAWYRQAPGKKRELVAGISADGSTVYIDSVKGRFTISRDNAKNSVYLQMNSLRAEDTAVYYCYAYRWTTRYTYWGQGTLVTVSSGGGGSGGGSGGGGSGGGSHHHHHH" reported_value=0.067

Kindly review the next binder as well.
Item anti-DLL3 trispecific protein, DLL3 binder 4D09 (protein, part only; not given: anti-CD3 fragment and anti-albumin domain, part only) chain, part: EVQLVESGGGLVQPGGSLTLSCAASGSSVKFLSMAWYRQAPGKKRELVAGISADGSTDYILSVKGRFTISRDNAKNSVYLQMNSLRAEDTAVYYCYAYEWTTRYTYWGQGTLVTVSSGGGGSGGGSGGGGSGGGSHHHHHH has what recorded DMS-153 TDCC EC50 (conditioned medium, human T cells)?
0.052
